Test system: HT-29
Experiment: Antiproliferative activity against human HT-29 cells after 48 hrs by MTT assay
Type: functional, cell-based
Settings: HT-29, 48 h
Endpoint: log10 of IC50 (log10 of the value in µM)
Reminder: these figures are log10 of reported IC50, in µM before transformation.

Specify measured log10 of IC50 for COc1cc2c(Nc3ccc(NC(=O)c4cccc(Cl)c4)cc3)ncnc2cc1OCCCN1CCN(C)CC1 .
0.72

Name the recorded log10 of IC50 of the item COc1cc2c(Nc3ccc(NC(=O)c4cccc(Cl)c4)cc3)ncnc2cc1OCCN1CCCCC1 in your answer.
0.90

Write down log10 of IC50 measured for item COc1cc2c(Nc3ccc(NC(=O)c4ccccc4)cc3)ncnc2cc1OCCN1CCCCC1
1.42

Determine from records and report log10 of IC50 for COc1ccc(C(=O)Nc2ccc(Nc3ncnc4cc(OCCCN5CCN(C)CC5)c(OC)cc34)cc2)cc1
1.34

For COc1cc2c(Nc3ccc(NC(=O)c4ccc(C)cc4)cc3)ncnc2cc1OCCCN1CCOCC1 , write its log10 of IC50.
1.95

Determine its reported log10 of IC50: COc1cc2c(Nc3ccc(NC(=O)c4ccc(Cl)cc4)cc3)ncnc2cc1OCCN1CCCCC1
0.71

Give log10 of IC50 for the following molecule: COc1cc2c(Nc3ccc(NC(=O)c4ccc(C)cc4)cc3)ncnc2cc1OCCN1CCCCC1
0.84

Recall and state the measured log10 of IC50 for COc1cc2c(Nc3ccc(NC(=O)c4ccc(Cl)cc4)cc3)ncnc2cc1OCCCN1CCN(C)CC1 .
0.74

Determine its reported log10 of IC50: COc1cc2c(Nc3ccc(NC(=O)c4ccccc4)cc3)ncnc2cc1OCCCN1CCN(C)CC1
1.50

Name the recorded log10 of IC50 of the molecule listed here: COc1cc2c(Nc3ccc(NC(=O)c4ccc(Cl)cc4)cc3)ncnc2cc1OCCCN1CCOCC1
0.97

In one line, give reported log10 of IC50 of the entry COc1cc2c(Nc3ccc(NC(=O)c4ccccc4)cc3)ncnc2cc1OCc1ccccc1 .
0.87

Return reported log10 of IC50. Input molecule: COc1cc2c(Nc3ccc(NC(=O)c4cccc(Cl)c4)cc3)ncnc2cc1OCCCN1CCOCC1
1.33

Note log10 of IC50 for the molecule shown: COc1cc2c(Nc3ccc(NC(=O)c4ccccc4Cl)cc3)ncnc2cc1OCCCN1CCN(C)CC1
1.37

Fill in log10 of IC50 for record COc1cc2c(Nc3ccc(NC(=O)c4ccc(C)cc4)cc3)ncnc2cc1OCCCN1CCN(C)CC1
1.23

====

What follows is a record of pIC50 for Epidermal growth factor receptor (Homo sapiens, UniProt P00533).
Worth noting: pIC50 values are minus log10 of concentrations stated in mol/L.

Provide pIC50, tested on Epidermal growth factor receptor (Homo sapiens, UniProt P00533), for COc1cc2c(Nc3ccc(NC(=O)c4ccc(Cl)cc4)cc3)ncnc2cc1OCCCN1CCN(C)CC1 .
Sequence (P00533 whole entry): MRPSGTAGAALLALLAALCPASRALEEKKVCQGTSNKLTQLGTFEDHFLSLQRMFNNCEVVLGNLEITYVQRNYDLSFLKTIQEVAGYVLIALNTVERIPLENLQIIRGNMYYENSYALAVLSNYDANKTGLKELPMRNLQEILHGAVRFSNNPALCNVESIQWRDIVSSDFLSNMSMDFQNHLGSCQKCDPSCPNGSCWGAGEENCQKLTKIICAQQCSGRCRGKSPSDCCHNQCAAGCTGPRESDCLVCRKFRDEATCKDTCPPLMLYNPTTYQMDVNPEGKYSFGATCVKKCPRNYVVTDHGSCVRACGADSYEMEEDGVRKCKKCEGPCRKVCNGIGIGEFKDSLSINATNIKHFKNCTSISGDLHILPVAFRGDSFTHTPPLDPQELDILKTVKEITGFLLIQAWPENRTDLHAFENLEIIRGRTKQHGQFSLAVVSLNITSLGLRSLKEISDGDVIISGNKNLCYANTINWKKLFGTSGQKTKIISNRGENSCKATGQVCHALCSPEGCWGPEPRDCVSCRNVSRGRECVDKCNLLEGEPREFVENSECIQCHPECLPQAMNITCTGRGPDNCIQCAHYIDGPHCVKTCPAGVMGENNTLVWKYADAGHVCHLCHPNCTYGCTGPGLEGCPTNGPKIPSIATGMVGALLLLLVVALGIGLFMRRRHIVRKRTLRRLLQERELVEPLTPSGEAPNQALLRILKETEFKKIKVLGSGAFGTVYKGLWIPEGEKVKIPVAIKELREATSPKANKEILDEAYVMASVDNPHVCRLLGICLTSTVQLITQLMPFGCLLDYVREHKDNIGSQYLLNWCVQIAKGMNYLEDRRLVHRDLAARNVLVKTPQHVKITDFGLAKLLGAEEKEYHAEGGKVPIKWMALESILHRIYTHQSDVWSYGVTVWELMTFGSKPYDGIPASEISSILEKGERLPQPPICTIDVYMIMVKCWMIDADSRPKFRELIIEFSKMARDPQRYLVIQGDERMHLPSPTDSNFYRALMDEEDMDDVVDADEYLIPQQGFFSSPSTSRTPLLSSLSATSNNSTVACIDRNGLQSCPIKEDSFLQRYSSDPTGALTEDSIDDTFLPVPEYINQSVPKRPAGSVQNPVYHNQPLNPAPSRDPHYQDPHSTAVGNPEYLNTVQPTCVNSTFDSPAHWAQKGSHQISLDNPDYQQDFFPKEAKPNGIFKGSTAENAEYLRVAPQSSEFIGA
5.88

Recall the reported pIC50 of COc1cc2c(Nc3ccc(NC(=O)c4cccc(Cl)c4)cc3)ncnc2cc1OCCCN1CCN(C)CC1 when tested on Epidermal growth factor receptor (Homo sapiens, UniProt P00533).
6.82

Give pIC50 for COc1cc2c(Nc3ccc(NC(=O)c4ccc(Cl)cc4)cc3)ncnc2cc1OCCCN1CCOCC1 tested on Epidermal growth factor receptor (Homo sapiens, UniProt P00533).
5.87

Fetch value of pIC50 on Epidermal growth factor receptor (Homo sapiens, UniProt P00533) for COc1ccc(C(=O)Nc2ccc(Nc3ncnc4cc(OCCCN5CCN(C)CC5)c(OC)cc34)cc2)cc1 .
5.95

Quote pIC50 with test system Epidermal growth factor receptor (Homo sapiens, UniProt P00533) for COc1cc2c(Nc3ccc(NC(=O)c4ccccc4Cl)cc3)ncnc2cc1OCCCN1CCN(C)CC1
7.70

State pIC50 on Epidermal growth factor receptor (Homo sapiens, UniProt P00533). Entry: COc1cc2c(Nc3ccc(NC(=O)c4cccc(Cl)c4)cc3)ncnc2cc1OCCN1CCCCC1
6.52

Give pIC50; test system Epidermal growth factor receptor (Homo sapiens, UniProt P00533); compound COc1cc2c(Nc3ccc(NC(=O)c4ccccc4Cl)cc3)ncnc2cc1OCc1ccccc1
6.14

====

Please provide measured IC50 for the entries that follow.
Test system: MCF7
Assay: Antiproliferative activity against human MCF7 cells after 48 hrs by MTT assay
Assay type: functional, cell-based
Details: MCF7, 48 h
Use µM as the unit, but write only the number.

Identify IC50 associated with the compound COc1ccc(C(=O)Nc2ccc(Nc3ncnc4cc(OCCCN5CCN(C)CC5)c(OC)cc34)cc2)cc1
24.6

Specify measured IC50 for COc1cc2c(Nc3ccc(NC(=O)c4ccccc4Cl)cc3)ncnc2cc1OCc1ccccc1 .
78.2

Provide measured IC50 value, entry: COc1cc2c(Nc3ccc(NC(=O)c4ccccc4)cc3)ncnc2cc1OCCN1CCCCC1
36

Entry COc1cc2c(Nc3ccc(NC(=O)c4ccc(C)cc4)cc3)ncnc2cc1OCCCN1CCN(C)CC1 needs its IC50 filled in; supply it.
24.9

Find the measured IC50 of COc1cc2c(Nc3ccc(NC(=O)c4ccccc4)cc3)ncnc2cc1OCCCN1CCN(C)CC1 and report it.
39

Give the value of IC50 reported for the following: COc1cc2c(Nc3ccc(NC(=O)c4cccc(Cl)c4)cc3)ncnc2cc1OCCN1CCCCC1
4.34

Give recorded IC50. COc1cc2c(Nc3ccc(NC(=O)c4ccc(Cl)cc4)cc3)ncnc2cc1OCCN1CCCCC1
0.1

Report IC50, nothing else, for this compound: COc1cc2c(Nc3ccc(NC(=O)c4cccc(Cl)c4)cc3)ncnc2cc1OCCCN1CCOCC1
7.8

Retrieve IC50 measured for COc1cc2c(Nc3ccc(NC(=O)c4ccccc4Cl)cc3)ncnc2cc1OCCCN1CCN(C)CC1 and print it.
15.4

Please report the measured IC50 for COc1cc2c(Nc3ccc(NC(=O)c4ccc(Cl)cc4)cc3)ncnc2cc1OCCCN1CCOCC1
40.2

Quick one: give measured IC50 for COc1cc2c(Nc3ccc(NC(=O)c4ccc(Cl)cc4)cc3)ncnc2cc1OCc1ccccc1
56.4

Using known records, supply IC50 for COc1cc2c(Nc3ccc(NC(=O)c4ccc(C)cc4)cc3)ncnc2cc1OCCCN1CCOCC1
37.6

Identify IC50 associated with the compound COc1cc2c(Nc3ccc(NC(=O)c4ccc(Cl)cc4)cc3)ncnc2cc1OCCCN1CCN(C)CC1
53.2

Report measured IC50; entry is COc1cc2c(Nc3ccc(NC(=O)c4cccc(Cl)c4)cc3)ncnc2cc1OCCCN1CCN(C)CC1
4.41

====

For each entry below, report its IC50 value.
Test system: MCF7
Assay: Antiproliferative activity against human MCF7 cells after 48 hrs by MTT assay
Format: functional, cell-based
Conditions: MCF7, 48 h

In one line, give reported IC50 of the entry COc1cc2c(Nc3ccc(NC(=O)c4ccc(C)cc4)cc3)ncnc2cc1OCc1ccccc1 .
> 100 µM

Please report IC50 for the following compound: COc1cc2c(Nc3ccc(NC(=O)c4ccccc4)cc3)ncnc2cc1OCc1ccccc1
> 100 µM

Return IC50 for the following compound: COc1cc2c(Nc3ccc(NC(=O)c4cccc(Cl)c4)cc3)ncnc2cc1OCc1ccccc1
> 100 µM
